# TEST DESCRIPTION: Plasma pharmacokinetic studies of idronoxil in rats (rectal in cocoa butter vs intestinal in lipid emulsion)
# Format: in vivo, Male Sprague-Dawley rats
# ASSAY CONTEXT: male, Sprague-Dawley, rat, plasma, other: intraduodenal infusion, 10 mg/kg, Intestinal delivery (intraduodenal infusion), lipid emulsion, 10 mg/kg, 5 hr; read-out: Idronoxil Plasma Concentration Rat 1
MEASUREMENT KIND: concentration at 5 h (ng/mL)
Please state the figure in ng/mL; there is no need to write the unit.

Ask | Requested field: concentration at 5 h. Item: `Oc1ccc(C2=Cc3ccc(O)cc3OC2)cc1`
Reply | 17.4
